# Experimental Target: human OX2 receptor (Homo sapiens, UniProt O43614)
# Construct: expressed in transfected cells
# Sequence (O43614 1-444): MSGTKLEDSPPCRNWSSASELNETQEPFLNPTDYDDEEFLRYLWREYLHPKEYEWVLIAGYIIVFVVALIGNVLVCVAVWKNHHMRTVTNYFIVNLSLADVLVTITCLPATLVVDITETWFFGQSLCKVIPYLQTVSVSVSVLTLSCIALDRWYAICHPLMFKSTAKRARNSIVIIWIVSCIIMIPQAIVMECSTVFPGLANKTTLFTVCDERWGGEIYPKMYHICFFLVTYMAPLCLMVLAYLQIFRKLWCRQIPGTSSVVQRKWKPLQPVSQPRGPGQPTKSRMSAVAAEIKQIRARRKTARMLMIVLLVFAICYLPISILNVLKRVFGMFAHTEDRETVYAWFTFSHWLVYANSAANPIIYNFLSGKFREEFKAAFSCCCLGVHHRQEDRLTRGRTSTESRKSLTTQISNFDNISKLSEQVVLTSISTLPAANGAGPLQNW
# Assay Summary: Measurement of orexin type 2 receptor agonist activity (calcium fluorescence, Fluo-4, FDSS)
# Assay type: cell-based
# Reported Conditions: 3 uM test compound; CHO cells expressing human OX2 receptor; DMSO = 0%, 10 nM orexin A (human) = 100%
Reported Property: OX2R agonist activity (3 uM, %)
All answers are understood in %, so give the number only.

Determine its reported OX2R agonist activity (3 uM, %): CS(=O)(=O)N[C@H]1C[C@H]2CCN(c3noc4cccc(-c5c(F)cc(F)cc5F)c34)C(=O)N2C1
106

Determine its reported OX2R agonist activity (3 uM, %): CCS(=O)(=O)N[C@H]1C[C@H]2CN(c3noc4cccc(-c5c(F)ccc(F)c5F)c34)C(=O)N2C1
81

Determine its reported OX2R agonist activity (3 uM, %): CCS(=O)(=O)N[C@@H]1CN2C(=O)N(c3noc4cc(F)cc(-c5c(F)cccc5F)c34)CC[C@@H]2C1(F)F [Example 263]
114

Determine its reported OX2R agonist activity (3 uM, %): CCS(=O)(=O)N[C@H]1C[C@H]2CN(c3noc4cc(Cl)cc(-c5c(F)cccc5F)c34)C(=O)N2C1
103

---

# Experimental Target: human OX2 receptor (Homo sapiens, UniProt O43614)
# Construct: expressed in transfected cells
# Sequence (O43614 1-444): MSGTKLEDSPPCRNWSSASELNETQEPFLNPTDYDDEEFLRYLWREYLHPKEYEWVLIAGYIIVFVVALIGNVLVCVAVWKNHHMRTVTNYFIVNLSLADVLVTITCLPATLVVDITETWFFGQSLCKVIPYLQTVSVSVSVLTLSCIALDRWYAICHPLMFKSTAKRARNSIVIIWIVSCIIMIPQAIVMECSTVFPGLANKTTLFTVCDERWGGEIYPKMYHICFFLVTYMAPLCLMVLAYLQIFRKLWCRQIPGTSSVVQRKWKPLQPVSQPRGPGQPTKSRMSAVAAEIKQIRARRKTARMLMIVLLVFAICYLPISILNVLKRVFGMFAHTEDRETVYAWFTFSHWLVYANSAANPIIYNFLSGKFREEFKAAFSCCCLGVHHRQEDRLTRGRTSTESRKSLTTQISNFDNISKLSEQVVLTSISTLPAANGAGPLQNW
# Assay Summary: Measurement of orexin type 2 receptor agonist activity (calcium fluorescence, Fluo-4, FDSS)
# Format: cell-based
# Reported Conditions: 3 uM test compound; CHO cells expressing human OX2 receptor; DMSO = 0%, 10 nM orexin A (human) = 100%
OX2R agonist activity (3 uM, %) values by entry
All answers are understood in %, so give the number only.

CCOc1cc(-c2c(F)cc(F)cc2F)c2c(N3CC[C@H]4N(C[C@@H](NS(=O)(=O)CC)C4(F)F)C3=O)noc2c1 [Example 307]	101
CCS(=O)(=O)N[C@@H]1CN2C(=O)N(c3noc4cc(F)c(F)c(-c5c(F)cccc5F)c34)CC[C@@H]2C1(F)F [Example 311]	99
CCS(=O)(=O)NC1Cn2c(cn(-c3noc4cccc(-c5c(F)cccc5F)c34)c2=O)CC1(F)F (single isomer, unassigned) [Example 181]	105
O=c1n(-c2noc3cc(C(F)F)cc(-c4c(F)cc(F)cc4F)c23)cc2n1C[C@@H](NS(=O)(=O)CF)C2(F)F [Example 267]	101
Cc1cc(-c2c(F)cccc2F)c2c(-n3cc4n(c3=O)C[C@@H](NS(C)(=O)=O)C4(F)F)noc2n1 [Example 118]	91

Determine its reported OX2R agonist activity (3 uM, %): CCS(=O)(=O)N[C@@H]1Cn2c(cn(-c3noc4ccc(F)c(-c5c(F)cccc5F)c34)c2=O)C1(F)F [Example 76]
105

Determine its reported OX2R agonist activity (3 uM, %): CS(=O)(=O)N[C@@H]1Cn2c(cn(-c3noc4cc(C(F)F)cc(-c5c(F)cccc5F)c34)c2=O)C1(F)F [Example 136]
99
